# System: P. vulgatus WT;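 also: active when median AUC fell below 0.1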
# experiment: growth AUC normalised to DMSO control (median) (fraction of control); higher = less growth inhibition, active = hit call of the paper
# experimentalConditions: 20 µM
Where a name gives a salt, the structure may show the parent alone.
reportedEndpoint: growth AUC normalised to DMSO control
Give bare numbers.

Examples from the recorded data:
CC(=O)c1cc2cccc(OCC(O)CNC(C)C)c2o1 (stereo not drawn): 1.06
CN(Cc1cc(Br)cc(Br)c1N)C1CCCCC1 [Bromhexine hydrochloride]: 0.977
CCCCOc1ccc(C(=O)CCN2CCCCC2)cc1 [Dyclonine hydrochloride]: 1.01
CC(=O)SCC(Cc1ccccc1)C(=O)NCC(=O)OCc1ccccc1 (stereo not drawn): 1.05

Dear colleague, could you send me growth AUC normalised to DMSO control for each of the items below? Thanks.
1. O=C(Cn1ccnc1[N+](=O)[O-])NCCO
2. CCCCOc1cc(C(=O)OCCN(CC)CC)ccc1N [Benoxinate hydrochloride]
3. CCOc1ccc(Cc2nccc3cc(OCC)c(OCC)cc23)cc1OCC [Ethaverine hydrochloride]
4. Cn1c(=O)c2[nH]cnc2n(C)c1=O

1. 1.01
2. 0.977
3. 0.998
4. 1.05

The reported numbers originate from the supplement of paper PMC12350171.
